Attribute: pest or weed control at 250 g/ha
- System: Echinochloa crus-galli (ECHCG)
- assay.text: Glasshouse assay for herbicidal activity, pre-/post-emergence (percentage phytotoxicity)
- Type: in vivo
- experimental.context: Echinochloa crus-galli, pre-emergence, 480 h, Rate 250 g/ha; pre-emergence; visual assessment 20 DAA; 100%=total damage, 0%=no damage; read-out: Pre-emergence herbicidal activity (percentage phytotoxicity), ECHCG PRE

pest or weed control at 250 g/ha for Cc1cc(C)c(C2C(=O)C[C@@H](CCNC(=O)C3=NOC(C)(C)C3)C2=O)c(C)c1 (some centres unmarked) [Compound A102] ?
100%

Reported pest or weed control at 250 g/ha for Cc1cc(-n2cc(Cl)cn2)cc(C)c1C1C(=O)CC(CCNC(=O)NC(C)(C)C)C1=O (centres unmarked) [Compound A21] : what is it?
100%

Sample Cc1cc(-n2cc(Cl)cn2)cc(C)c1C1C(=O)CC(CCNC(=O)C2=NOC(C)(C)C2)C1=O (centres unmarked) [Compound A43] — what was its pest or weed control at 250 g/ha?
90%

Need pest or weed control at 250 g/ha, item Cc1cc(C)c(C2C(=O)CC(CCNC(=O)NC(=O)c3c(Cl)cccc3Cl)C2=O)c(C)c1 (centres unmarked) [Compound A52]
100%

Name the reported pest or weed control at 250 g/ha value associated with the molecule Cc1cc(-c2ncc(Cl)cc2F)cc(C)c1C1C(=O)CC(CCNC(=O)NC(C)(C)C)C1=O.Cl (centres unmarked) [Compound A29]
90%

Can you share its pest or weed control at 250 g/ha? I mean this molecule: Cc1cc(C)c(C2C(=O)CC(CCNC(=O)Nc3ccccc3F)C2=O)c(C)c1 (centres unmarked) [Compound A45]
80%

For C#Cc1cc(C)cc(C)c1C1C(=O)CC(CCNC(=O)C2=NOC(C)(C)C2)C1=O (centres unmarked) [Compound A123] , what is its reported pest or weed control at 250 g/ha?
20%

Others:
Item Cc1cc(C)c(C2C(=O)CC(CCNC(=O)C3=NOC(C)(C)C3)C2=O)c(C)c1 (centres unmarked) [Compound A40] has what recorded pest or weed control at 250 g/ha?
100%
